Reported Emax at 10 µM values are given for each entry in this list.
# target.under.test: hA3AR (Homo sapiens)
# Construct: expressed in transfected cells
# assay.protocol: cAMP assay, inhibition of forskolin-stimulated cAMP in hA3AR-transfected CHO cells
# Type: cell-based
# condition.info: CHO; read-out: % efficacy, A3

compound: OC1C(O)C(n2cnc3c(NCc4cccc(Cl)c4)nc(C#Cc4ccccc4)nc32)C2CC12 (stereo not shown) [Compound 11]
Emax at 10 µM, %: 13.8
--
compound: CCNc1nc(C#Cc2ccccc2)nc2c1ncn2[C@H]1[C@H](O)[C@H](O)[C@@H]2C[C@@H]21 [Compound 9]
Emax at 10 µM, %: 0.8
--
compound: CNc1nc(C#Cc2ccccc2)nc2c1ncn2[C@H]1[C@H](O)[C@H](O)[C@@H]2C[C@@H]21 [Compound 8]
Emax at 10 µM, %: 12.6
--
compound: CNC(=O)[C@@]12C[C@@H]1[C@@H](n1cnc3c(NCc4cccc(Cl)c4)nc(C#Cc4cccc(S(=O)(=O)O)c4)nc31)[C@H](O)[C@@H]2O [Compound 7]
Emax at 10 µM, %: 98.2

* * *

Reported Emax at 10 µM values are given for each entry in this list.
# target.under.test: hA3AR (Homo sapiens, UniProt P0DMS8)
# Construct: expressed in transfected cells
# Sequence (P0DMS8 whole entry): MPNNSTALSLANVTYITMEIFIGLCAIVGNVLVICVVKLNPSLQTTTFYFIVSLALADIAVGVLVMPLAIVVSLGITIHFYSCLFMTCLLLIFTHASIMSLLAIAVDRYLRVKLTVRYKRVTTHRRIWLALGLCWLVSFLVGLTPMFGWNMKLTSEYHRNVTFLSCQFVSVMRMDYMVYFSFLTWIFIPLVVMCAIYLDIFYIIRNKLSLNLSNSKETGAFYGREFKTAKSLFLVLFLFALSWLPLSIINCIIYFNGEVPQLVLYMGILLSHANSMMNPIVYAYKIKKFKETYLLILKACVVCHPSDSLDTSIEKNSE
# assay.protocol: cAMP assay, inhibition of forskolin-stimulated cAMP in hA3AR-transfected CHO cells
# Format: cell-based
# condition.info: CHO; read-out: % efficacy, A3
observation.type: Emax at 10 µM

molecule: CNC(=O)[C@@]12C[C@@H]1[C@@H](n1cnc3c(NCc4cccc(Cl)c4)nc(C#Cc4ccc(S(=O)(=O)O)cc4)nc31)[C@H](O)[C@@H]2O [Compound 6]
observation.type: Emax at 10 µM
result: 96.8%
//
molecule: OC1C(O)C(n2cnc3c(NCC(c4ccccc4)c4ccccc4)nc(C#Cc4ccccc4Cl)nc32)C2CC12 (stereo not drawn) [Compound 15]
observation.type: Emax at 10 µM
result: 2.6%
//
molecule: O=S(=O)(O)c1ccc(CCNc2nc(C#Cc3ccccc3)nc3c2ncn3[C@H]2[C@H](O)[C@H](O)[C@@H]3C[C@@H]32)cc1 [Compound 16]
observation.type: Emax at 10 µM
result: 7.2%

* * *

Reported Ki values are given for each entry in this list.
# target.under.test: A3AR (Homo sapiens, UniProt P0DMS8)
# Construct: expressed in transfected cells
# Sequence (P0DMS8 whole entry): as the sequence (P0DMS8 whole entry) above
# assay.protocol: Radioligand binding, membranes of CHO cells stably expressing hA3AR
# condition.info: species h; agonist radioligand 42; n 3-4; read-out: affinity (KV nM) A3
observation.type: Ki (nM)

smiles.structure: CNC(=O)[C@@]12C[C@@H]1[C@@H](n1cnc3c(NCc4cccc(Cl)c4)nc(C#Cc4ccc(S(=O)(=O)O)cc4)nc31)[C@H](O)[C@@H]2O
measured.number: 11.1
//
smiles.structure: CNC(=O)[C@@]12C[C@@H]1[C@@H](n1cnc3c(NCc4cccc(Cl)c4)nc(C#Cc4cccc(S(=O)(=O)O)c4)nc31)[C@H](O)[C@@H]2O
measured.number: 1.9
//
smiles.structure: CNC(=O)[C@@]12C[C@@H]1[C@@H](n1cnc3c(NCCc4ccccc4)nc(C#Cc4ccccc4)nc31)[C@H](O)[C@@H]2O
measured.number: 1.23
//
smiles.structure: O=S(=O)(O)c1ccc(CCNc2nc(C#Cc3ccccc3)nc3c2ncn3[C@H]2[C@H](O)[C@H](O)[C@@H]3C[C@@H]32)cc1
measured.number: 30.2

* * *

# target.under.test: A1AR (Mus musculus, UniProt Q60612)
# Construct: expressed in transfected cells
# Sequence (Q60612 1-326): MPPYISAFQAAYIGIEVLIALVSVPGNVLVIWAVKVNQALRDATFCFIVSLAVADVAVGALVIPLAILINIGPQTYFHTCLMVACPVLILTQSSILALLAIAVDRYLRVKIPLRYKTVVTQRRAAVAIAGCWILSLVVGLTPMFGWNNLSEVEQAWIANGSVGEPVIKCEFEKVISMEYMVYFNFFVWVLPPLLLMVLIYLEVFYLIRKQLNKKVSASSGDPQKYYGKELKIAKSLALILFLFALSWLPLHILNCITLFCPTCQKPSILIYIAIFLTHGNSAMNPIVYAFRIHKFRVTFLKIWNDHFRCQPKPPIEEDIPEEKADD
# assay.protocol: Radioligand binding, membranes of HEK293 cells stably expressing mA1AR
# condition.info: read-out: % inhibition A1
Reported inhibition at 10 µM values are given for each entry in this list.

compound: CNC(=O)[C@@]12C[C@@H]1[C@@H](n1cnc3c(NCc4cccc(Cl)c4)nc(C#Cc4ccccc4)nc31)[C@H](O)[C@@H]2O [Compound 5]
inhibition at 10 µM [%]: 50

compound: CNC(=O)[C@@]12C[C@@H]1[C@@H](n1cnc3c(NCCc4ccccc4)nc(C#Cc4ccccc4)nc31)[C@H](O)[C@@H]2O [Compound 17]
inhibition at 10 µM [%]: 25

compound: O=S(=O)(O)c1ccc(CCNc2nc(C#Cc3ccccc3)nc3c2ncn3[C@H]2[C@H](O)[C@H](O)[C@@H]3C[C@@H]32)cc1 [Compound 16]
inhibition at 10 µM [%]: 18

compound: CCNc1nc(C#Cc2ccccc2)nc2c1ncn2[C@H]1[C@H](O)[C@H](O)[C@@H]2C[C@@H]21 [Compound 9]
inhibition at 10 µM [%]: 49

compound: CNC(=O)[C@@]12C[C@@H]1[C@@H](n1cnc3c(NCc4cccc(Cl)c4)nc(C#Cc4cccc(S(=O)(=O)O)c4)nc31)[C@H](O)[C@@H]2O [Compound 7]
inhibition at 10 µM [%]: 15

* * *

# target.under.test: A2AAR (Homo sapiens)
# Construct: expressed in transfected cells
# Sequence (P29274 whole entry): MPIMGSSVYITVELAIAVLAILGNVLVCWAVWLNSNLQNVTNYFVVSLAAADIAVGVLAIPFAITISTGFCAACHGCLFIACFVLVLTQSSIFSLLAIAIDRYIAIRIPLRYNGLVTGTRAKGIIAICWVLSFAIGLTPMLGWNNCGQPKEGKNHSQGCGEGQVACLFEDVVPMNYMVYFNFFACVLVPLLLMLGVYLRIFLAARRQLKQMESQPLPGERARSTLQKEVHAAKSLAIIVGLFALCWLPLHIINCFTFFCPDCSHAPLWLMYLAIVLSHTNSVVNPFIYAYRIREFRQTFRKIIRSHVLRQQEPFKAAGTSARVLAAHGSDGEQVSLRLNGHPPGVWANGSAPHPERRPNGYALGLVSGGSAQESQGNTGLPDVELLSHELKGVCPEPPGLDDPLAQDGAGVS
# assay.protocol: Radioligand binding, membranes of HEK293 cells stably expressing hA2AAR
# condition.info: read-out: % inhibition A2A
observation.type: inhibition at 10 µM

smiles.structure: O=S(=O)(O)c1ccc(CCNc2nc(C#Cc3ccccc3)nc3c2ncn3[C@H]2[C@H](O)[C@H](O)[C@@H]3C[C@@H]32)cc1
observation.type: inhibition at 10 µM
result: 15%

smiles.structure: CNC(=O)[C@@]12C[C@@H]1[C@@H](n1cnc3c(NCCc4ccccc4)nc(C#Cc4ccccc4)nc31)[C@H](O)[C@@H]2O
observation.type: inhibition at 10 µM
result: 32%

smiles.structure: CNC(=O)[C@@]12C[C@@H]1[C@@H](n1cnc3c(NCc4cccc(Cl)c4)nc(C#Cc4ccc(S(=O)(=O)O)cc4)nc31)[C@H](O)[C@@H]2O
observation.type: inhibition at 10 µM
result: 23%

smiles.structure: CNC(=O)[C@@]12C[C@@H]1[C@@H](n1cnc3c(NCc4cccc(Cl)c4)nc(C#Cc4cccc(S(=O)(=O)O)c4)nc31)[C@H](O)[C@@H]2O
observation.type: inhibition at 10 µM
result: 7%

* * *

Reported inhibition at 10 µM values are given for each entry in this list.
# target.under.test: A2AAR (Mus musculus)
# Construct: expressed in transfected cells
# Sequence (Q60613 whole entry): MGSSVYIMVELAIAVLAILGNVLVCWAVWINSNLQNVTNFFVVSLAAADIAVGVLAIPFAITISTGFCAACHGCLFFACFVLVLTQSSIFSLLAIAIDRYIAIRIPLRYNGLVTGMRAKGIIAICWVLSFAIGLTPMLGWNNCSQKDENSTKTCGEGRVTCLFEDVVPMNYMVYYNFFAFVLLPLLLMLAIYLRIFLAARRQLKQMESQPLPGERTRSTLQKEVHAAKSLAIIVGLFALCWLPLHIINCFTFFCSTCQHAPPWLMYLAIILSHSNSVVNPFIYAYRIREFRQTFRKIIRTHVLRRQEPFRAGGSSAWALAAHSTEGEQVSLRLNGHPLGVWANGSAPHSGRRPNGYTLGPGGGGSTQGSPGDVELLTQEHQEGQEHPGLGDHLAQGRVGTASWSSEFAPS
# assay.protocol: Radioligand binding, membranes of HEK293 cells stably expressing mA2AAR
# condition.info: read-out: % inhibition A2A

compound: O[C@@H]1[C@H](O)[C@@H]2C[C@@H]2[C@H]1n1cnc2c(NCc3cccc(Cl)c3)nc(C#Cc3ccc(-c4ccccc4)cc3)nc21 [Compound 13]
inhibition at 10 µM (%): 0
--
compound: CNC(=O)[C@@]12C[C@@H]1[C@@H](n1cnc3c(NCc4cccc(Cl)c4)nc(C#Cc4ccc(S(=O)(=O)O)cc4)nc31)[C@H](O)[C@@H]2O [Compound 6]
inhibition at 10 µM (%): 14
--
compound: O=S(=O)(O)c1ccc(CCNc2nc(C#Cc3ccccc3)nc3c2ncn3[C@H]2[C@H](O)[C@H](O)[C@@H]3C[C@@H]32)cc1 [Compound 16]
inhibition at 10 µM (%): 1

* * *

# target.under.test: A3AR (Mus musculus)
# Construct: expressed in transfected cells
# Sequence (Q61618 whole entry): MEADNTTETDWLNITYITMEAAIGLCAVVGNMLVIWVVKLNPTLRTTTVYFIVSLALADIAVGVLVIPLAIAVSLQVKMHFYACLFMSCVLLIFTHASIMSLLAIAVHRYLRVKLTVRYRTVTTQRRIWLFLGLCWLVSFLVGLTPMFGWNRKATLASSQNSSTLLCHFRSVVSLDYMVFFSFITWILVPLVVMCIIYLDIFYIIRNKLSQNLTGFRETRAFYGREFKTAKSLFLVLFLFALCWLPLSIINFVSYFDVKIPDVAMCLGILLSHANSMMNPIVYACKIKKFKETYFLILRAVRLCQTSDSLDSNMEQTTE
# assay.protocol: Radioligand binding, membranes of HEK293 cells stably expressing mA3AR
# condition.info: species m; n 3-4; read-out: affinity (KV nM) A3
observation.type: log10(Ki) (log10 of the value in nM)

compound: CNC(=O)[C@@]12C[C@@H]1[C@@H](n1cnc3c(NCc4cccc(Cl)c4)nc(C#Cc4cccc(S(=O)(=O)O)c4)nc31)[C@H](O)[C@@H]2O [Compound 7]
observation.type: log10(Ki)
measured.number: 1.05
--
compound: CNC(=O)[C@@]12C[C@@H]1[C@@H](n1cnc3c(NCc4cccc(Cl)c4)nc(C#Cc4ccc(S(=O)(=O)O)cc4)nc31)[C@H](O)[C@@H]2O [Compound 6]
observation.type: log10(Ki)
measured.number: 0.99
--
compound: CNc1nc(C#Cc2ccccc2)nc2c1ncn2[C@H]1[C@H](O)[C@H](O)[C@@H]2C[C@@H]21 [Compound 8]
observation.type: log10(Ki)
measured.number: 3.18
--
compound: CNC(=O)[C@@]12C[C@@H]1[C@@H](n1cnc3c(NCCc4ccccc4)nc(C#Cc4ccccc4)nc31)[C@H](O)[C@@H]2O [Compound 17]
observation.type: log10(Ki)
measured.number: 0.94
--
compound: CCNc1nc(C#Cc2ccccc2)nc2c1ncn2[C@H]1[C@H](O)[C@H](O)[C@@H]2C[C@@H]21 [Compound 9]
observation.type: log10(Ki)
measured.number: 3.17
--
compound: O=S(=O)(O)c1ccc(CCNc2nc(C#Cc3ccccc3)nc3c2ncn3[C@H]2[C@H](O)[C@H](O)[C@@H]3C[C@@H]32)cc1 [Compound 16]
observation.type: log10(Ki)
measured.number: 3.59
--
compound: CNC(=O)[C@@]12C[C@@H]1[C@@H](n1cnc3c(NCc4cccc(Cl)c4)nc(C#Cc4ccccc4)nc31)[C@H](O)[C@@H]2O [Compound 5]
observation.type: log10(Ki)
measured.number: 0.09
--
compound: O[C@@H]1[C@H](O)[C@@H]2C[C@@H]2[C@H]1n1cnc2c(NCc3cccc(Cl)c3)nc(C#Cc3ccc(-c4ccccc4)cc3)nc21 [Compound 13]
observation.type: log10(Ki)
measured.number: 2.41

Origin of measurements: patent US20150087613A1
